Every entry's value here was drawn from BigSolDB 2.1.

Conditions: in 2-butoxyethanol, 293.15 K
parameter: solubility (mole fraction)

Task: Suppose we examine the molecule CNC[C@H](O)c1cccc(O)c1.Cl ; what solubility (mole fraction) value has been reported?
Output: 0.0102

====

Conditions: in DMF, 283.15 K
parameter: solubility (mole fraction)
Response field accepts a number only; no unit should be typed.

Task: Any idea what solubility (mole fraction) was measured for CNC[C@H](O)c1cccc(O)c1.Cl ?
Output: 0.198

====

Settings: in methanol, 303.15 K
parameter: solubility (mole fraction)
Provide a numeric answer; units are not to be included.

Task: Can you share its solubility (mole fraction)? I mean this compound: CNC[C@H](O)c1cccc(O)c1.Cl
Output: 0.123

====

Details: in 2-ethoxyethanol, 323.15 K
parameter: solubility (mole fraction)

Task: Give its solubility (mole fraction) value. Item: CNC[C@H](O)c1cccc(O)c1.Cl
Output: 0.122

====

Conditions: in NMP, 298.15 K
parameter: solubility (mole fraction)
Write the value as a bare number.

Task: Find the recorded solubility (mole fraction) belonging to CNC[C@H](O)c1cccc(O)c1.Cl and report it.
Output: 0.186

====

Details: in 2-methoxyethanol, 288.15 K
parameter: solubility (mole fraction)
Keep it simple and answer with nothing but the number.

Task: # get_value(readout='solubility (mole fraction)', item= CNC[C@H](O)c1cccc(O)c1.Cl )
Output: 0.131

====

Conditions: in n-propanol, 323.15 K
parameter: solubility (mole fraction)

Task: What value of solubility (mole fraction) has been recorded for this entry: CNC[C@H](O)c1cccc(O)c1.Cl
Output: 0.0282

====

Details: in methanol, 278.15 K
parameter: solubility (mole fraction)
Quick one: just the number, no unit, thanks!

Task: Query (compound): CNC[C@H](O)c1cccc(O)c1.Cl ; field requested: solubility (mole fraction)
Output: 0.0715

====

Conditions: in ethanol, 313.15 K
parameter: solubility (mole fraction)
Lab note: jot down the number only; don't add units.

Task: Entry under review: CNC[C@H](O)c1cccc(O)c1.Cl . Reported solubility (mole fraction)?
Output: 0.047

====

Conditions: in 2-butoxyethanol, 313.15 K
parameter: solubility (mole fraction)
I'd appreciate a reply containing only the number, no unit.

Task: Given the entry CNC[C@H](O)c1cccc(O)c1.Cl , report its measured solubility (mole fraction).
Output: 0.0248

====

Conditions: in ethanol, 293.15 K
parameter: solubility (mole fraction)
// no unit, no text: just the number

Task: Consider the molecule CNC[C@H](O)c1cccc(O)c1.Cl and give its measured solubility (mole fraction).
Output: 0.0233

====

Conditions: in 2-ethoxyethanol, 313.15 K
parameter: solubility (mole fraction)

Task: # lookup: solubility (mole fraction) of CNC[C@H](O)c1cccc(O)c1.Cl
Output: 0.0903

====

Conditions: in 2-ethoxyethanol, 318.15 K
parameter: solubility (mole fraction)

Task: Using the record for CNC[C@H](O)c1cccc(O)c1.Cl , report its solubility (mole fraction).
Output: 0.106

====

Conditions: in 2-propoxyethanol, 313.15 K
parameter: solubility (mole fraction)

Task: I have this molecule here, CNC[C@H](O)c1cccc(O)c1.Cl , and I need its recorded solubility (mole fraction).
Output: 0.0376

====

Conditions: in n-propanol, 293.15 K
parameter: solubility (mole fraction)
// response body must contain only the number

Task: Give the measured solubility (mole fraction) of CNC[C@H](O)c1cccc(O)c1.Cl .
Output: 0.00905

====

Conditions: in n-propanol, 283.15 K
parameter: solubility (mole fraction)

Task: What solubility (mole fraction) value was documented for this compound, CNC[C@H](O)c1cccc(O)c1.Cl ?
Output: 0.00586

====

Conditions: in n-propanol, 308.15 K
parameter: solubility (mole fraction)
// response body must contain only the number

Task: // returns reported solubility (mole fraction) for input CNC[C@H](O)c1cccc(O)c1.Cl
Output: 0.0163

====

Conditions: in NMP, 303.15 K
parameter: solubility (mole fraction)

Task: Form field: reported solubility (mole fraction) of CNC[C@H](O)c1cccc(O)c1.Cl
Output: 0.198

====

Conditions: in 2-butoxyethanol, 278.15 K
parameter: solubility (mole fraction)
Please reply with the number alone, leaving off any unit.

Task: Give its solubility (mole fraction) value. Item: CNC[C@H](O)c1cccc(O)c1.Cl
Output: 0.00496

====

Settings: in isopropanol, 278.15 K
parameter: solubility (mole fraction)
Kindly provide the number alone.

Task: # solubility (mole fraction) lookup, item CNC[C@H](O)c1cccc(O)c1.Cl
Output: 0.00201

====

Settings: in isopropanol, 313.15 K
parameter: solubility (mole fraction)

Task: Could you share which solubility (mole fraction) value was measured for CNC[C@H](O)c1cccc(O)c1.Cl ?
Output: 0.00931

====

Conditions: in 2-propoxyethanol, 308.15 K
parameter: solubility (mole fraction)
The answer should be a number; do not append a unit.

Task: Dear colleague, I am looking for the recorded solubility (mole fraction) of the following molecule: CNC[C@H](O)c1cccc(O)c1.Cl
Output: 0.0304

====

Settings: in ethanol, 278.15 K
parameter: solubility (mole fraction)
Answer with a bare number; do not write a unit.

Task: What value of solubility (mole fraction) has been recorded for this entry: CNC[C@H](O)c1cccc(O)c1.Cl
Output: 0.0138

====

Details: in ethanol, 303.15 K
parameter: solubility (mole fraction)
Respond numerically, and do not add a unit to the figure.

Task: Can you look up the measured solubility (mole fraction) of CNC[C@H](O)c1cccc(O)c1.Cl for me?
Output: 0.034

====

Conditions: in DMF, 288.15 K
parameter: solubility (mole fraction)
Respond with the number and no other words.

Task: Query: solubility (mole fraction); subject: CNC[C@H](O)c1cccc(O)c1.Cl
Output: 0.21

====

Conditions: in methanol, 323.15 K
parameter: solubility (mole fraction)
I'd appreciate a reply containing only the number, no unit.

Task: Sample CNC[C@H](O)c1cccc(O)c1.Cl — what was its solubility (mole fraction)?
Output: 0.182

====

Settings: in methanol, 283.15 K
parameter: solubility (mole fraction)
Provide a numeric answer; units are not to be included.

Task: Bench note: what solubility (mole fraction) did CNC[C@H](O)c1cccc(O)c1.Cl show?
Output: 0.0811

====

Details: in 2-methoxyethanol, 313.15 K
parameter: solubility (mole fraction)
Number only, please.

Task: Would you kindly share the measured solubility (mole fraction) for CNC[C@H](O)c1cccc(O)c1.Cl ?
Output: 0.183

====

Details: in ethanol, 298.15 K
parameter: solubility (mole fraction)
No unit in the answer, please; the number alone is enough.

Task: Which solubility (mole fraction) is reported for this compound? CNC[C@H](O)c1cccc(O)c1.Cl
Output: 0.0287

====

Conditions: in isopropanol, 303.15 K
parameter: solubility (mole fraction)
Kindly provide the number alone.

Task: Which solubility (mole fraction) reading was recorded for the molecule CNC[C@H](O)c1cccc(O)c1.Cl ?
Output: 0.0062

====

Details: in methanol, 313.15 K
parameter: solubility (mole fraction)

Task: Looking for the measured solubility (mole fraction) of CNC[C@H](O)c1cccc(O)c1.Cl , can you help?
Output: 0.15

====

Conditions: in 2-methoxyethanol, 318.15 K
parameter: solubility (mole fraction)
A bare number is all that is needed in reply.

Task: Can you look up the measured solubility (mole fraction) of CNC[C@H](O)c1cccc(O)c1.Cl for me?
Output: 0.195

====

Settings: in 2-methoxyethanol, 303.15 K
parameter: solubility (mole fraction)
Provide a numeric answer; units are not to be included.

Task: Recorded solubility (mole fraction) for CNC[C@H](O)c1cccc(O)c1.Cl , please?
Output: 0.161

====

Details: in 2-butoxyethanol, 308.15 K
parameter: solubility (mole fraction)

Task: Quick check: solubility (mole fraction) of CNC[C@H](O)c1cccc(O)c1.Cl ?
Output: 0.0195

====

Details: in 2-butoxyethanol, 298.15 K
parameter: solubility (mole fraction)
Give the figure only, with no unit attached.

Task: Name the reported solubility (mole fraction) value associated with the molecule CNC[C@H](O)c1cccc(O)c1.Cl
Output: 0.0126

====

Conditions: in 2-methoxyethanol, 323.15 K
parameter: solubility (mole fraction)

Task: Reported solubility (mole fraction), compound CNC[C@H](O)c1cccc(O)c1.Cl : ____
Output: 0.21

====

Details: in DMF, 313.15 K
parameter: solubility (mole fraction)
Could you keep your reply to the number by itself?

Task: Would you kindly share the measured solubility (mole fraction) for CNC[C@H](O)c1cccc(O)c1.Cl ?
Output: 0.284

====

Conditions: in 2-propoxyethanol, 288.15 K
parameter: solubility (mole fraction)
Give a plain numeric answer without units written out.

Task: Given the entry CNC[C@H](O)c1cccc(O)c1.Cl , report its measured solubility (mole fraction).
Output: 0.0132
